Exercise: for every item that follows, state its recorded combination Emax.
Test system: TK (B-Cell Non-Hodgkin's Lymphoma)
assay.comment: combination Emax (second highest fraction inhibited in the dose matrix, 72 h); higher = more inhibition; extreme values may be limits of the assay
Numbers only.

Would you mind listing combination Emax for each of the following molecules?
1. Cn1cnc2c(F)c(Nc3ccc(Br)cc3Cl)c(C(=O)NOCCO)cc21 [Selumetinib] + C=CCn1c(=O)c2cnc(Nc3ccc(N4CCN(C)CC4)cc3)nc2n1-c1cccc(C(C)(C)O)n1 [AZD1775] (first compound max 10 µM, partner max 1 µM)
2. CN(CCO)CC[C@H](CSc1ccccc1)Nc1ccc(S(=O)(=O)NC(=O)c2ccc(N3CCC([C@@H](O)c4ccccc4-c4ccc(Cl)cc4)CC3)cc2)cc1S(=O)(=O)C(F)(F)F [AZD4320] + CCN(CCO)CCCOc1ccc2c(Nc3cc(CC(=O)Nc4cccc(F)c4)[nH]n3)ncnc2c1 [AZD2811] (first compound max 1 µM, 7x7, partner max 1 µM)

output:
[0.93, 0.993]

Quick batch: combination Emax for everything below.
1. Cc1c2c(nn1C)CSCc1cc(n(C)n1)CSc1cc(c3ccccc3c1)OCCCc1c(C(=O)O)n(C)c3c-2c(Cl)ccc13 [AZD5991] + CC1(C)CCC(CN2CCN(c3ccc(C(=O)NS(=O)(=O)c4ccc(NCC5CCOCC5)c([N+](=O)[O-])c4)c(Oc4cnc5[nH]ccc5c4)c3)CC2)=C(c2ccc(Cl)cc2)C1 [Venetoclax] (first compound max 1 µM, 7x7, partner max 1 µM)
2. COc1nnc2ccc(N3CCC(c4ccc(OCCN5CCN(C)C(=O)[C@H]5C)cc4)CC3)nn12 [AZD5153] + CN(CC[C@H](CSC1=CC=CC=C1)NC2=C(C=C(C=C2)S(=O)(=O)NC(=O)C3=CC=C(C=C3)N4CCC(CC4)[C@H](C5=CC=CC=C5C6=CC=C(C=C6)Cl)O)S(=O)(=O)C(F)(F)F)CCO [AZD4320] (first compound max 1 µM, 7x7, partner max 1 µM)
3. Cn1cnc2c(F)c(Nc3ccc(Br)cc3Cl)c(C(=O)NOCCO)cc21 [Selumetinib] + CC(C)n1c(=O)n(C)c2cnc3cc(F)c(-c4ccc(OCCCN5CCCCC5)nc4)cc3c21 [AZD1390] (first compound max 10 µM, 7x7, partner max 0.3 µM)

output:
1: 1; 2: 1; 3: 0.177

input: What measured combination Emax goes with CN(CCO)CC[C@H](CSc1ccccc1)Nc1ccc(S(=O)(=O)NC(=O)c2ccc(N3CCC([C@@H](O)c4ccccc4-c4ccc(Cl)cc4)CC3)cc2)cc1S(=O)(=O)C(F)(F)F [AZD4320] + Cc1cc2ncnn2cc1Nc1ncc2c(n1)n(C1CCOCC1)c(=O)n2C [AZD7648] (first compound max 1 µM, 7x7, partner max 10 µM) ?
output: 0.991

* * *

Task for the reader: assign each of the following compounds its reported combination Emax.
System: BT-474 (Breast Carcinoma)
assay.comment: combination Emax (second highest fraction inhibited in the dose matrix, 72 h); higher = more inhibition; extreme values may be limits of the assay
Give bare numbers.

Consider the worked cases shown below.
| compound | value.kind | number |
| --- | --- | --- |
| NC1(C(=O)N[C@@H](CCO)c2ccc(Cl)cc2)CCN(c2ncnc3[nH]ccc23)CC1 [Capivasertib] + Cn1cnc2c(F)c(Nc3ccc(Br)cc3Cl)c(C(=O)NOCCO)cc21 [Selumetinib] (first compound max 10 µM, 7x7, partner max 10 µM) | combination Emax | 0.39 |
| CN(CCO)CC[C@H](CSc1ccccc1)Nc1ccc(S(=O)(=O)NC(=O)c2ccc(N3CCC([C@@H](O)c4ccccc4-c4ccc(Cl)cc4)CC3)cc2)cc1S(=O)(=O)C(F)(F)F [AZD4320] + C[C@@H]1COCCN1C2=NC(=NC(=C2)C3(CC3)[S@](=N)(=O)C)C4=C5C=CNC5=NC=C4 [AZD6738] (first compound max 1 µM, 7x7, partner max 10 µM) | combination Emax | 0.259 |

Record combination Emax for all entries; do not skip any.
1. CN(CCO)CC[C@H](CSc1ccccc1)Nc1ccc(S(=O)(=O)NC(=O)c2ccc(N3CCC([C@@H](O)c4ccccc4-c4ccc(Cl)cc4)CC3)cc2)cc1S(=O)(=O)C(F)(F)F [AZD4320] + Cn1cnc2c(F)c(Nc3ccc(Br)cc3Cl)c(C(=O)NOCCO)cc21 [Selumetinib] (first compound max 1 µM, 7x7, partner max 3 µM)
2. Cc1cc2ncnn2cc1Nc1ncc2c(n1)n(C1CCOCC1)c(=O)n2C [AZD7648] + CN(C)CCCOc1ccc(-c2ccc3ncc4c(c3c2)n(C2CCOCC2)c(=O)n4C)cn1 [AZD0156] (first compound max 10 µM, 7x7, partner max 1 µM)
3. COc1cccc2c1C(=O)c1c(O)c3c(c(O)c1C2=O)C[C@@](O)(C(=O)CO)C[C@@H]3O[C@H]1C[C@H](N)[C@H](O)[C@H](C)O1 [Doxorubicin] + Cc1cc2ncnn2cc1Nc1ncc2c(n1)n(C1CCOCC1)c(=O)n2C [AZD7648] (first compound max 1 µM, 7x7, partner max 10 µM)
4. CC1(C)CCC(CN2CCN(c3ccc(C(=O)NS(=O)(=O)c4ccc(NCC5CCOCC5)c([N+](=O)[O-])c4)c(Oc4cnc5[nH]ccc5c4)c3)CC2)=C(c2ccc(Cl)cc2)C1 [Venetoclax] + Cc1cc2ncnn2cc1Nc1ncc2c(n1)n(C1CCOCC1)c(=O)n2C [AZD7648] (first compound max 1 µM, 7x7, partner max 10 µM)
5. COc1nnc2ccc(N3CCC(c4ccc(OCCN5CCN(C)C(=O)[C@H]5C)cc4)CC3)nn12 [AZD5153] + C[C@@H]1COCCN1C2=NC(=NC(=C2)C3(CC3)[S@](=N)(=O)C)C4=C5C=CNC5=NC=C4 [AZD6738] (first compound max 1 µM, 7x7, partner max 10 µM)

output:
[0.282, 0.234, 0.197, 0.197, 0.483]

* * *

System: IGROV-1 (Ovarian Carcinoma)
assay.comment: Bliss excess, mean over the matrix (fraction); higher = more synergy
value.kind: Bliss excess

Below, 3 compounds whose answers are already recorded.
| compound | study.system | result |
| --- | --- | --- |
| CN(C)CCCOc1ccc(-c2ccc3ncc4c(c3c2)n(C2CCOCC2)c(=O)n4C)cn1 [AZD0156] + CCN(CCO)CCCOc1ccc2c(Nc3cc(CC(=O)Nc4cccc(F)c4)[nH]n3)ncnc2c1 [AZD2811] (first compound max 1 µM, 7x7, partner max 1 µM) | IGROV-1 (Ovarian Carcinoma) | -0.0527 |
| C=CCn1c(=O)c2cnc(Nc3ccc(N4CCN(C)CC4)cc3)nc2n1-c1cccc(C(C)(C)O)n1 [AZD1775] + C[C@@H]1COCCN1C2=NC(=NC(=C2)C3(CC3)[S@](=N)(=O)C)C4=C5C=CNC5=NC=C4 [AZD6738] (first compound max 1 µM, partner max 10 µM) | IGROV-1 (Ovarian Carcinoma) | -0.0348 |
| CN(CCO)CC[C@H](CSc1ccccc1)Nc1ccc(S(=O)(=O)NC(=O)c2ccc(N3CCC([C@@H](O)c4ccccc4-c4ccc(Cl)cc4)CC3)cc2)cc1S(=O)(=O)C(F)(F)F [AZD4320] + C[C@@H](Nc1cc(F)cc(F)c1)c1cc(C(=O)N(C)C)cc2c(=O)cc(N3CCOCC3)oc12 [AZD8186] (first compound max 1 µM, 7x7, partner max 3 µM) | IGROV-1 (Ovarian Carcinoma) | 0.042 |

// below: Bliss excess requested for another compound
input: Look at this compound and give its reported Bliss excess. NC1(C(=O)N[C@@H](CCO)c2ccc(Cl)cc2)CCN(c2ncnc3[nH]ccc23)CC1 [Capivasertib] + COc1nnc2ccc(N3CCC(c4ccc(OCCN5CCN(C)C(=O)[C@H]5C)cc4)CC3)nn12 [AZD5153] (first compound max 10 µM, 7x7, partner max 1 µM)
output: -0.0221

* * *

Would you mind telling me the reported Bliss excess of each entry?
Tested on: KNS-62 (Squamous Cell Lung Carcinoma)
assay.comment: Bliss excess, mean over the matrix (fraction); higher = more synergy
Answers are plain numbers.

Consider the worked cases shown below.
| compound | Bliss excess |
| --- | --- |
| Cc1c2c(nn1C)CSCc1cc(n(C)n1)CSc1cc(c3ccccc3c1)OCCCc1c(C(=O)O)n(C)c3c-2c(Cl)ccc13 [AZD5991] + C1CN(CCC1(C(=O)N[C@@H](CCO)C2=CC=C(C=C2)Cl)N)C3=NC=NC4=C3C=CN4 [Capivasertib] (first compound max 1 µM, 7x7, partner max 3 µM) | 0.0047 |
| Cc1cc2ncnn2cc1Nc1ncc2c(n1)n(C1CCOCC1)c(=O)n2C [AZD7648] + CCN(CCO)CCCOc1ccc2c(Nc3cc(CC(=O)Nc4cccc(F)c4)[nH]n3)ncnc2c1 [AZD2811] (first compound max 10 µM, 7x7, partner max 1 µM) | 0.0489 |
| Cn1cnc2c(F)c(Nc3ccc(Br)cc3Cl)c(C(=O)NOCCO)cc21 [Selumetinib] + C[C@@H]1COCCN1C2=NC(=NC(=C2)C3(CC3)[S@](=N)(=O)C)C4=C5C=CNC5=NC=C4 [AZD6738] (first compound max 10 µM, 7x7, partner max 10 µM) | -0.0278 |

Please supply Bliss excess for each of the following items, keeping them in order.
1. Cc1nc(-c2cn3c(n2)-c2ccc(-c4cnn(C(C)(C)C(N)=O)c4)cc2OCC3)n(C(C)C)n1 [Taselisib] + O=C(Nc1ccc2[nH]nc(-c3ccncc3)c2c1)[C@@H]1CCN(CC(=O)N2CCN(c3ccc(-c4ncccn4)cc3)CC2)C1 [SCH772984] (first compound max 10 µM, 7x7, partner max 5 µM)
2. CCN(CCO)CCCOc1ccc2c(Nc3cc(CC(=O)Nc4cccc(F)c4)[nH]n3)ncnc2c1 [AZD2811] + O=C(c1cc(Cc2n[nH]c(=O)c3ccccc23)ccc1F)N1CCN(C(=O)C2CC2)CC1 [Olaparib] (first compound max 1 µM, 7x7, partner max 10 µM)

output:
1. 0.0108
2. -0.0171

Go through the items and report each one's Bliss excess.
1. COc1cc2c(cc1OCCCCCOc1cc3c(cc1OC)C(=O)N1C=C(C)C[C@H]1C=N3)N=C[C@@H]1CC(C)=CN1C2=O [SG3199] + O=C(c1cc(Cc2n[nH]c(=O)c3ccccc23)ccc1F)N1CCN(C(=O)C2CC2)CC1 [Olaparib] (first compound max 0.001 µM, 7x7, partner max 10 µM)
2. CN(C)CCCOc1ccc(-c2ccc3ncc4c(c3c2)n(C2CCOCC2)c(=O)n4C)cn1 [AZD0156] + CCN(CCO)CCCOc1ccc2c(Nc3cc(CC(=O)Nc4cccc(F)c4)[nH]n3)ncnc2c1 [AZD2811] (first compound max 1 µM, 7x7, partner max 1 µM)
3. CC1(C)CCC(CN2CCN(c3ccc(C(=O)NS(=O)(=O)c4ccc(NCC5CCOCC5)c([N+](=O)[O-])c4)c(Oc4cnc5[nH]ccc5c4)c3)CC2)=C(c2ccc(Cl)cc2)C1 [Venetoclax] + C[C@@H]1COCCN1C2=NC(=NC(=C2)C3(CC3)[S@](=N)(=O)C)C4=C5C=CNC5=NC=C4 [AZD6738] (first compound max 1 µM, 7x7, partner max 10 µM)
4. N#Cc1cnc(Nc2cc(NC[C@H]3CNCCO3)c(C(F)(F)F)cn2)cn1 [SRA737] + CCc1c2c(nc3ccc(O)cc13)-c1cc3c(c(=O)n1C2)COC(=O)[C@]3(O)CC [SN-38] (first compound max 10 µM, 7x7, partner max 0.3 µM)
5. Cc1c2c(nn1C)CSCc1cc(n(C)n1)CSc1cc(c3ccccc3c1)OCCCc1c(C(=O)O)n(C)c3c-2c(Cl)ccc13 [AZD5991] + CCN(CCO)CCCOc1ccc2c(Nc3cc(CC(=O)Nc4cccc(F)c4)[nH]n3)ncnc2c1 [AZD2811] (first compound max 1 µM, 7x7, partner max 1 µM)
6. CC1(C)CCC(CN2CCN(c3ccc(C(=O)NS(=O)(=O)c4ccc(NCC5CCOCC5)c([N+](=O)[O-])c4)c(Oc4cnc5[nH]ccc5c4)c3)CC2)=C(c2ccc(Cl)cc2)C1 [Venetoclax] + C1CN(CCC1(C(=O)N[C@@H](CCO)C2=CC=C(C=C2)Cl)N)C3=NC=NC4=C3C=CN4 [Capivasertib] (first compound max 1 µM, 7x7, partner max 3 µM)
7. C[C@@H](c1ccc2nccn2c1)n1nnc2ncc(-c3cnn(C)c3)nc21 [Savolitinib] + CC1(C)CCC(CN2CCN(c3ccc(C(=O)NS(=O)(=O)c4ccc(NCC5CCOCC5)c([N+](=O)[O-])c4)c(Oc4cnc5[nH]ccc5c4)c3)CC2)=C(c2ccc(Cl)cc2)C1 [Venetoclax] (first compound max 1 µM, 7x7, partner max 1 µM)
8. C=CCn1c(=O)c2cnc(Nc3ccc(N4CCN(C)CC4)cc3)nc2n1-c1cccc(C(C)(C)O)n1 [AZD1775] + C[C@@H]1COCCN1C2=NC(=NC(=C2)C3(CC3)[S@](=N)(=O)C)C4=C5C=CNC5=NC=C4 [AZD6738] (first compound max 1 µM, partner max 10 µM)

output:
[-0.0464, -0.0213, -0.121, -0.0387, 0.0156, -0.0474, -0.0616, 0.0257]
